These measurements were taken from patent US8148373B2.

molecular target: Adrenergic β2 (H292 cells) (Homo sapiens); construct: endogenous in cells; host or cells: H292 cells; assay: Assay for Adrenergic β2 Mediated cAMP Production (concentration response, AlphaScreen cAMP detection); type: cell-based; details: cAMP production, 60 minutes at room temperature, 300 μM rolipram, read-out: β2 pEC50 (converted)
Sequence (P07550 whole entry): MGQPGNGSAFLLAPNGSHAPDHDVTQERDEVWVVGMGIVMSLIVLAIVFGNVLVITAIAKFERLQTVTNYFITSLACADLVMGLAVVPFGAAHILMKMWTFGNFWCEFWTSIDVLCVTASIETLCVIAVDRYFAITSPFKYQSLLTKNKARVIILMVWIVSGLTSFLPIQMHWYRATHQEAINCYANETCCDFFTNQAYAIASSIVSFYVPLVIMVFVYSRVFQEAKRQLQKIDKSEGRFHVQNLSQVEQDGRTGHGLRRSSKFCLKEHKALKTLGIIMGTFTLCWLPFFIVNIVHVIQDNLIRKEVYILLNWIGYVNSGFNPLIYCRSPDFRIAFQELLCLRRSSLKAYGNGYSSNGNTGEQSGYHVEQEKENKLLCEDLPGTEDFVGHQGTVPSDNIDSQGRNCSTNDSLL
Counter-ions that a name gives are not always drawn.
The label is YES for EC50 below 6 nM and NO for EC50 equal to or exceeding 6 nM.

compound | assay_system | label_value
Cc1nc(C(=O)N2CCOC3(CCN(CCOc4cccc(CCNC[C@H](O)c5ccc(O)c6[nH]c(=O)sc56)c4)CC3)C2)cs1 [Example 24, ditrifluoroacetate] | Adrenergic β2 (H292 cells) (Homo sapiens) | YES
Cc1ccc(C(=O)N2CCOC3(CCN(Cc4ccc(F)c(CCNC[C@H](O)c5ccc(O)c6[nH]c(=O)sc56)c4F)CC3)C2)s1 [Example 34, ditrifluoroacetate] | Adrenergic β2 (H292 cells) (Homo sapiens) | YES
CCC(CC)c1nc(C(=O)N2CCOC3(CCN(Cc4cccc(CCNC[C@H](O)c5ccc(O)c6[nH]c(=O)sc56)c4F)CC3)C2)cs1 [Example 71, ditrifluoroacetate] | Adrenergic β2 (H292 cells) (Homo sapiens) | NO
O=C(c1cc2ccccc2s1)N1CCOC2(CCN(Cc3cccc(CCNC[C@H](O)c4ccc(O)c5[nH]c(=O)sc45)c3F)CC2)C1 [Example 79, ditrifluoroacetate] | Adrenergic β2 (H292 cells) (Homo sapiens) | NO
O=C(c1csc(-c2ccccc2)n1)N1CCOC2(CCN(Cc3cc(F)cc(CCNC[C@H](O)c4ccc(O)c5[nH]c(=O)sc45)c3)CC2)C1 [Example 41, ditrifluoroacetate] | Adrenergic β2 (H292 cells) (Homo sapiens) | NO
CC(C)c1nc(C(=O)N2CCOC3(CCN(Cc4ccc(C(F)(F)F)c(CCNC[C@H](O)c5ccc(O)c6[nH]c(=O)ccc56)c4)CC3)C2)cs1 [Example 273, ditrifluoroacetate] | Adrenergic β2 (H292 cells) (Homo sapiens) | NO
CC(C)c1nc(C(=O)N2CCOC3(CCN(Cc4ccc(F)c(CCNC[C@H](O)c5ccc(O)c6[nH]c(=O)ccc56)c4F)CC3)C2)cs1 [Example 46, ditrifluoroacetate] | Adrenergic β2 (H292 cells) (Homo sapiens) | NO
Cc1ccc(C(=O)N2CCOC3(CN(Cc4cccc(CCNC[C@H](O)c5ccc(O)c6[nH]c(=O)sc56)c4)C3)C2)s1 [Example 33, ditrifluoroacetate] | Adrenergic β2 (H292 cells) (Homo sapiens) | NO
CC(C)c1cccc(C(=O)N2CCOC3(CCN(Cc4cccc(CCNC[C@H](O)c5ccc(O)c6[nH]c(=O)sc56)c4F)CC3)C2)n1 [Example 85, ditrifluoroacetate] | Adrenergic β2 (H292 cells) (Homo sapiens) | NO
O=C(c1ccc2occc2c1)N1CCOC2(CCN(Cc3cc(F)cc(CCNC[C@H](O)c4ccc(O)c5[nH]c(=O)sc45)c3)CC2)C1 | Adrenergic β2 (H292 cells) (Homo sapiens) | YES
O=C(c1csc(-c2ccccc2)n1)N1CCOC2(CCN(CCCCCCCCCNC[C@H](O)c3ccc(O)c4[nH]c(=O)sc34)CC2)C1 [Example 113, formate] | Adrenergic β2 (H292 cells) (Homo sapiens) | NO
